# METHOD_NOTES: Compound stability in rat liver microsomes
# Format: in vitro ADME
# SETUP_CONDITIONS: liver microsomes, pH 7.4; in vivo CLint extrapolated from rat liver microsome incubation
READOUT_LABEL: CLint scaled at 5 μM (mL/min/kg)

COMPOUND	CLint scaled at 5 μM [mL/min/kg]
CCC1CN(c2ccc(C#N)nn2)CCC1Nc1nc(Nc2ccn3cnnc3c2)ncc1Cl (stereo not shown)	112

1: Cc1nc2ccc(Nc3ncc(Cl)c(NC4CCN(c5ccc(C#N)nn5)CC4)n3)cn2n1
2: Cn1cnc2cc(Nc3ncc(Cl)c(NC4CCN(c5ccc(C#N)nn5)CC4)n3)ccc21
Which record would sort first by descending CLint scaled at 5 μM, 1 or 2 ? Indicate your choice by writing its label.
1
(1: 87.5 mL/min/kg, 2: 58.2 mL/min/kg)

====

# ASSAYED_SYSTEM: JAK2 (h) (Homo sapiens, UniProt O60674)
# Sequence (O60674 whole entry): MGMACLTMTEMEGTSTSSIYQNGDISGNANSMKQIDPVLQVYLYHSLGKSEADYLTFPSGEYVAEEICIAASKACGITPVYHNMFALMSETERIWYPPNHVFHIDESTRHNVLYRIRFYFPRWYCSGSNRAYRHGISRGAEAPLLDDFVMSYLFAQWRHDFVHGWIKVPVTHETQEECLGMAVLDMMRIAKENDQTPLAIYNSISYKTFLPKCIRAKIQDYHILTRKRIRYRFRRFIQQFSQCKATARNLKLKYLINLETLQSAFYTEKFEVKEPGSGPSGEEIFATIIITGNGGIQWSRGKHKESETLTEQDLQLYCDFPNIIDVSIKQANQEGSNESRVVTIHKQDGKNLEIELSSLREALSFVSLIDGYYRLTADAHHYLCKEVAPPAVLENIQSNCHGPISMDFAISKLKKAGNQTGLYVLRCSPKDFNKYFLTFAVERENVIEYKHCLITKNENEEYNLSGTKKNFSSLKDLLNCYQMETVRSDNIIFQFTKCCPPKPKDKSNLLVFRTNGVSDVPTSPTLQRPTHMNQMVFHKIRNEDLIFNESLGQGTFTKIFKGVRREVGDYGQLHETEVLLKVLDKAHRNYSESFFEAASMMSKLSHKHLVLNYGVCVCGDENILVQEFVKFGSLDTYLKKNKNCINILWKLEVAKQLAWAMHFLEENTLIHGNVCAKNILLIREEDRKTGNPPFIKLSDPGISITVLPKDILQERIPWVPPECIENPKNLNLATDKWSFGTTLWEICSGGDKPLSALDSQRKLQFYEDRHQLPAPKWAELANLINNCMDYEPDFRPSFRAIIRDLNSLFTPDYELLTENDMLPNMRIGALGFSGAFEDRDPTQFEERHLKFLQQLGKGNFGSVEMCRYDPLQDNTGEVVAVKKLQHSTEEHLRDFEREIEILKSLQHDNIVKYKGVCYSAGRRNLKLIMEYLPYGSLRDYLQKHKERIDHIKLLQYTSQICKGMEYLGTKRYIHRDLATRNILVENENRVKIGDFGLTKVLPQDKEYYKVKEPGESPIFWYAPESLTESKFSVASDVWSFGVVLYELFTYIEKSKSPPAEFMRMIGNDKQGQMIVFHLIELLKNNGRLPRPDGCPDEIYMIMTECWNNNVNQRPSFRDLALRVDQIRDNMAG
pIC50: −log10 of the molar value.
READOUT_LABEL: pIC50

MOLECULE	ASSAYED_SYSTEM	pIC50
CC(C)(O)Cc1cn2ccc(Nc3ncc(Cl)c(NC4CCN(c5ccc(C#N)nn5)CC4)n3)cc2n1	JAK2 (h) (Homo sapiens, UniProt O60674)	7.39
CC(C)(O)c1cn2ccc(Nc3ncc(Cl)c(NC4CCN(c5ccc(C#N)cn5)CC4)n3)cc2n1	JAK2 (h) (Homo sapiens, UniProt O60674)	8.10
CC(C)(O)Cc1nc2cc(Nc3ncc(Cl)c(NC4CCN(c5ccc(C#N)nn5)CC4)n3)ccn2n1	JAK2 (h) (Homo sapiens, UniProt O60674)	7.77
Cc1nc2cc(Nc3ncc(Cl)c(NC4CCN(c5ccc(C#N)cn5)CC4)n3)ccc2n1C	JAK2 (h) (Homo sapiens, UniProt O60674)	9.15

1: CC(O)Cc1nc2cc(Nc3ncc(Cl)c(NC4CCN(c5ccc(C#N)nn5)CC4)n3)ccn2n1 (centres unmarked)
2: CC(C)(O)c1nnc2cc(Nc3ncc(Cl)c(NC4CCN(c5ccc(C#N)cn5)CC4)n3)ccn12
3: CC(C)(O)Cc1nnc2cc(Nc3ncc(Cl)c(NC4CCN(c5ccc(C#N)nn5)CC4)n3)ccn12
4: CC(C)(O)c1nc2cc(Nc3ncc(Cl)c(NC4CCN(c5ccc(C#N)cn5)CC4)n3)ccn2n1
# rank_down: sort by pIC50, max first Would you mind listing the labels in the order requested?
2, 4, 3, 1
(2: 9.00, 4: 8.30, 3: 8.10, 1: 7.82)

====

# ASSAYED_SYSTEM: JAK3 (h) (Homo sapiens)
# Sequence (P52333 1-1124): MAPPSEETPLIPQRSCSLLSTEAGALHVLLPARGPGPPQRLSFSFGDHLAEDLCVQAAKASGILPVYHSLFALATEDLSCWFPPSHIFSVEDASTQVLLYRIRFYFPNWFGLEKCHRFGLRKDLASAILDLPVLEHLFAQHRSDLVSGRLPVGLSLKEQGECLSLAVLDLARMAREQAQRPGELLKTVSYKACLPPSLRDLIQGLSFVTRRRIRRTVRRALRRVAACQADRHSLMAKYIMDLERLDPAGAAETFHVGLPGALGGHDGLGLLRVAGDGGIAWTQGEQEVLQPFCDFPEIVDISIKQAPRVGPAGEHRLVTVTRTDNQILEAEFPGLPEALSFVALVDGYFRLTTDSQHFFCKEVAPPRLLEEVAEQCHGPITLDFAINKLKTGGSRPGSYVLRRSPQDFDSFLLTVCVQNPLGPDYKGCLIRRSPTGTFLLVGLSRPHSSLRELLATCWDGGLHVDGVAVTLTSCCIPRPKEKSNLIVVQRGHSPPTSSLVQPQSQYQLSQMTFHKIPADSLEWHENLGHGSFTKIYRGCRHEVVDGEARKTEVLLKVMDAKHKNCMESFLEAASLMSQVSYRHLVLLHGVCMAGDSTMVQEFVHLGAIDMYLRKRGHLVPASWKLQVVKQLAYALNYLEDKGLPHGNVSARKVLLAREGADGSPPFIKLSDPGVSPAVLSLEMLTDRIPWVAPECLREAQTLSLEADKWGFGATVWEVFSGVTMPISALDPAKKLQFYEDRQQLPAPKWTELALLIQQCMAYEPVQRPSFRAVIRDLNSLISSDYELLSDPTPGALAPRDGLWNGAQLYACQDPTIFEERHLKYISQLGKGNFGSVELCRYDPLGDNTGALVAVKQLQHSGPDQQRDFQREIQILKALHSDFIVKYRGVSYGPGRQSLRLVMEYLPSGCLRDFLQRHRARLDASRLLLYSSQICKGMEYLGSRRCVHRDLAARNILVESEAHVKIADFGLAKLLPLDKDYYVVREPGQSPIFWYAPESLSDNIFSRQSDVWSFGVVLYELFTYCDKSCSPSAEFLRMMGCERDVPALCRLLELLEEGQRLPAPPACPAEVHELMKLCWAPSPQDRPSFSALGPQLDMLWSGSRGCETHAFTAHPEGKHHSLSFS
READOUT_LABEL: IC50 (nM)

COMPOUND	UNIT_TEXT	IC50
CC(C)(O)Cc1nc2cc(Nc3ncc(Cl)c(NC4CCN(c5ccc(C#N)nn5)CC4)n3)ccn2n1 [Example 77]	nM	353
CC(C)(O)Cc1nnc2cc(Nc3ncc(Cl)c(NC4CCN(c5ccc(C#N)cn5)CC4)n3)ccn12 [Example 74]	nM	64

a: N#Cc1ccc(N2CCC(Nc3nc(Nc4ccn5c(C(F)F)nnc5c4)ncc3Cl)CC2)nc1 [Example 30]
b: CC(C)(O)Cc1nnc2cc(Nc3ncc(Cl)c(NC4CCN(c5ccc(C#N)nn5)CC4)n3)ccn12 [Example 75]
# argmax over IC50 for candidates a and b Bench note: the answer is the label of the chosen record.
b

====

# METHOD_NOTES: Compound stability in rat liver microsomes
# Format: in vitro ADME
# SETUP_CONDITIONS: rat liver microsomes 0.5 mg protein/mL, compound 5 μM, NADPH 1.0 mM, pH 7.4, 37° C.; read-out: Rat T1/2
READOUT_LABEL: half-life at 5 μM (min)

The cases that follow already have their half-life at 5 μM on record.
MOLECULE	UNIT_TEXT	half-life at 5 μM
Cn1cnc2cc(Nc3ncc(Cl)c(NC4CCN(c5ccc(C#N)cn5)CC4)n3)ccc21	min	76.3
CC(C)(O)c1cnc2cc(Nc3ncc(Cl)c(NC4CCN(c5ccc(C#N)nn5)CC4)n3)ccn12	min	36.2

P: Cc1nc2cc(Nc3ncc(Cl)c(NC4CCN(c5ccc(C#N)cn5)CC4)n3)ccc2n1C
Q: Cn1cnc2cc(Nc3ncc(Cl)c(NC4CCN(c5ccc(C#N)nn5)CC4)n3)ccc21
R: CC(C)(O)Cc1nc2ccc(Nc3ncc(Cl)c(NC4CCN(c5ccc(C#N)nn5)CC4)n3)cn2n1
Arrange these molecules by their half-life at 5 μM, starting with the largest number. A complete answer lists every label in the requested sequence.
R, P, Q
(R: 486 min, P: 55.7 min, Q: 29.9 min)

A: Cc1c(Nc2ncc(Cl)c(NC3CCN(c4ccc(C#N)nn4)CC3)n2)ccn2c(C)cnc12
B: CC(O)Cc1nc2cc(Nc3ncc(Cl)c(NC4CCN(c5ccc(C#N)nn5)CC4)n3)ccn2n1 (centres unmarked)
Which of the two items, A and B , has the greater recorded half-life at 5 μM? Please reply using the label of the selected record.
B
(B: 48.8 min, A: 32.4 min)

====

# METHOD_NOTES: Pharmacokinetics after intravenous and oral administration in rats
# Type: in vivo
# SETUP_CONDITIONS: iv dosing, dose 1 mg/kg (Ex. 9: 0.6, Ex. 18: 0.5, Ex. 50: 0.96 mg/kg)
READOUT_LABEL: Clearance (CL) after iv dosing (mL/min/kg)

Known Clearance (CL) after iv dosing results, listed for orientation:
COMPOUND	UNIT_TEXT	Clearance (CL) after iv dosing
Cc1nc2ccc(Nc3ncc(Cl)c(NC4CCN(c5ccc(C#N)nn5)CC4)n3)cn2n1	mL/min/kg	10.5
CN(C)C(=O)c1nc2cc(Nc3ncc(Cl)c(NC4CCN(c5ccc(C#N)cn5)CC4)n3)ccn2n1	mL/min/kg	9.33
CC(C)(O)Cc1nc2ccc(Nc3ncc(Cl)c(NC4CCN(c5ccc(C#N)cn5)CC4)n3)cn2n1	mL/min/kg	11.2
N#Cc1ccc(N2CCC(Nc3nc(Nc4cnn5ccnc5c4)ncc3Cl)CC2)nc1	mL/min/kg	13.2
N#Cc1ccc(N2CCC(Nc3nc(Nc4ccn5cc(C(F)F)nc5c4)ncc3Cl)CC2)nn1	mL/min/kg	14

a: CC(C)(O)c1nc2cc(Nc3ncc(Cl)c(NC4CCN(c5ccc(C#N)nn5)CC4F)n3)ccn2n1 (stereo not drawn)
b: CC(C)(O)c1nc2cc(Nc3ncc(Cl)c(NC4CCN(c5ccc(C#N)cn5)CC4)n3)ccn2n1
Looking at recorded values for Clearance (CL) after iv dosing, does a or b come in lower? Pick one; state its label.
b

a: N#Cc1ccc(N2CCC(Nc3nc(Nc4ccn5c(C(F)F)nnc5c4)ncc3Cl)CC2)nc1
b: CC(C)(O)Cc1nc2ccc(Nc3ncc(Cl)c(NC4CCN(c5ccc(C#N)nn5)CC4)n3)cn2n1
So which one has the bigger Clearance (CL) after iv dosing here, a or b ? Give the label under which the chosen entry appears.
b
(b: 272 mL/min/kg, a: 2.83 mL/min/kg)
